Source: the supplement of paper PMC10567573

B1: CSNK1G1 (parent)
chain: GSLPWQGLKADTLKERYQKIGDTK

Variants of: B1
Assay: protein stability index of a GFP-peptide fusion (GPS, HEK-293T) (PSI 1-6); higher = more stable;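 further: lentivirally expressed fusions sorted by FACS into six bins by GFP to DsRed ratio, PSI derived from sequencing read proportions per bin multiplied by bin number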
Conditions: c terminus: a fixed tail appended

>  <variant_description>
W5S

>  <protein stability index>
4.99

$$$$
>  <variant_description>
P4L

>  <protein stability index>
3.78

$$$$
>  <variant_description>
T12H

>  <protein stability index>
3.71

$$$$
>  <variant_description>
Y17N

>  <protein stability index>
4.98

$$$$
>  <variant_description>
K9F

>  <protein stability index>
3.66

$$$$
>  <variant_description>
R16H

>  <protein stability index>
4.35

$$$$
>  <variant_description>
L3E

>  <protein stability index>
4.18

$$$$
>  <variant_description>
K24T

>  <protein stability index>
4.08

$$$$
>  <variant_description>
L8A

>  <protein stability index>
3.73

$$$$
>  <variant_description>
Q6C

>  <protein stability index>
3.4

$$$$
>  <variant_description>
I20G

>  <protein stability index>
5

$$$$
>  <variant_description>
L3Y

>  <protein stability index>
4.09

$$$$
>  <variant_description>
G7T

>  <protein stability index>
3.89

$$$$
>  <variant_description>
Q18E

>  <protein stability index>
4.54

$$$$
>  <variant_description>
Q6P

>  <protein stability index>
4.57

$$$$
>  <variant_description>
I20A

>  <protein stability index>
4.67

$$$$
>  <variant_description>
K9C

>  <protein stability index>
3.93

$$$$
>  <variant_description>
L3K

>  <protein stability index>
4.12

$$$$
